tested on: OVCAR-5 ovarian; test: NCI tumour cell line growth inhibition, 48 h
VALUE KIND: TGI

Return reported TGI. Input molecule: C=C(Cl)C(Br)(CCl)CCC(Cl)C(C)C (stereo not drawn) (tested in a mixture with another compound) 6.69 µM

Output TGI of `Cc1ccccc1N=Nc1ccc(N=Nc2c(O)ccc3cc(S(=O)(=O)O)cc(S(=O)(=O)O)c23)c(C)c1` > 100 µM

Tell me TGI reported for `S=C1SC2(CCCCCC2)NC2=C1CCCCC2` > 100 µM

====

tested on: HL-60(TB) leukemia; assay: NCI tumour cell line growth inhibition, 48 h
For each record, write down the corresponding TGI.

Please report the measured TGI for `Cc1ccc(-c2n[nH]c(=O)n2N)cc1` > 100 µM

Write down TGI measured for item CCC1(c2ccncc2)CCC(=O)NC1=O (stereo not given) > 100 µM

In one line, give reported TGI of the entry `C/C(=N/NC(=S)Nc1cccc(Cl)c1)c1cccc(/C(C)=N\NC(=S)Nc2cccc(Cl)c2)n1` . > 100 µM

Kindly indicate its recorded TGI. Item: CC(=O)OCC1OC(Sc2nc(-c3ccc(C)cc3)c(C#N)c(=O)n2C2OC(COC(C)=O)C(OC(C)=O)C(OC(C)=O)C2OC(C)=O)C(OC(C)=O)C(OC(C)=O)C1OC(C)=O (stereo not given) 76.6 µM

Supply measured TGI of `c1ccc(CN2CCC3(CC2)ONC2=NCCN23)cc1` in your reply. > 100 µM
